Tested on: PfAP2-HC AP2 domain (GST-tagged)
assay-protocol: gcPBM binding intensity (ln(normalized median fluorescence intensity)); higher = stronger DNA binding
In all, about 25,000 sequences were measured (“ln(normalized median fluorescence intensity)”: median about 9.7, highest 2% from about 11 on). The entries come from a sample that favours the highest values as a whole.
Catalogue of gcPBM binding intensity (ln) readings, one per entry.
Just the number, please, no unit after it.

Here's what some known entries look like.
[[record]]
ordered_residues = "TACACCCATGGACACACACACACGCATAAAAAAAAA [CACACA_site4933]"
reported_value = 10.7

[[record]]
ordered_residues = "TATATAAAGAAACACACACACACCTTATAATTATTA [CACACA_site4062]"
reported_value = 11.2

[[record]]
ordered_residues = "TATATATTAAAACACACACACATATATATATATATA [CACACA_site3787]"
reported_value = 10.1

[[record]]
ordered_residues = "CACGCATACAGACACACACACACACCCATATATATA [CACACA_site636]"
reported_value = 10.6


Now for another entry.
Ask: Output gcPBM binding intensity (ln) of TAAAGAATATTATAAACACACACTTTATAAAGAATT [CACACA_site114]
Reply: 9.91

---

Test system: PfAP2-HC AP2 domain (GST-tagged)
assay-protocol: gcPBM binding intensity (ln(normalized median fluorescence intensity)); higher = stronger DNA binding
Over roughly 25,000 sequences, “ln(normalized median fluorescence intensity)” has its median near 9.7; the highest 2% begin near 11. Shown is part of a subset that was picked to be rich in the highest values.
measured-metric: gcPBM binding intensity (ln)

[[record]]
ordered_residues = "TATGTTTTTCGGTATGCATGCATATGCTTAATAATA [TGCATGCA_site184]"
measured_metric = "gcPBM binding intensity (ln)"
reported_value = 9.55

[[record]]
ordered_residues = "TTACAAATATTATAAAGTACAAACCAGTAGATTTTG [XGTACX_site2272]"
measured_metric = "gcPBM binding intensity (ln)"
reported_value = 9.63

[[record]]
ordered_residues = "ATAATAAGGTTAAGCACACATATTACATATATAACT [CACACA_site3356]"
measured_metric = "gcPBM binding intensity (ln)"
reported_value = 10

[[record]]
ordered_residues = "ATAATATATGAAAAAACGATTTTTTCATTTTAAATA [XGTACX_negctrl_site146]"
measured_metric = "gcPBM binding intensity (ln)"
reported_value = 9.51

[[record]]
ordered_residues = "TTATGATGGTCTTTATAAGGGCACATTAAATTCGGC [TGCATGCA_negctrl_site166]"
measured_metric = "gcPBM binding intensity (ln)"
reported_value = 9.35


Ask: Return reported gcPBM binding intensity (ln) for target or system PfAP2-HC AP2 domain (GST-tagged), item AAAAAAAAAAAATACACACACATAAAAAAAAAAATA [CACACA_site1858] .
Reply: 10.9

Ask: System PfAP2-HC AP2 domain (GST-tagged). Read-out gcPBM binding intensity (ln). Item TGAAATACGAATTATTGTACTTATGTGTAAGATGGC [XGTACX_site4472] . Report value.
Reply: 9.71

Ask: Report value: gcPBM binding intensity (ln), system: PfAP2-HC AP2 domain (GST-tagged), sequence: AATAAAATAAAATACACACATACATACATACAAATG [CACACA_site2438]
Reply: 11.2

Ask: Under PfAP2-HC AP2 domain (GST-tagged): report gcPBM binding intensity (ln) of ATTAGTGACATTATTACACACAAAAGAAAACAGAAA [CACACA_site3984] .
Reply: 9.99

---

Test system: PfAP2-HC AP2 domain (GST-tagged)
assay-protocol: gcPBM binding intensity (ln(normalized median fluorescence intensity)); higher = stronger DNA binding
The full ranking holds about 25,000 sequences; the median of “ln(normalized median fluorescence intensity)” is about 9.7, and the highest 2% start at about 11. The sample holds the highest values, similar sequences and a random draw of the others, so the mix is not that of the screen.
measured-metric: gcPBM binding intensity (ln)

Ask: Output measured gcPBM binding intensity (ln) for this item: AATATGTACAGACATACACACATATTTATATTTATA [CACACA_site6694]
Reply: 9.88

Ask: Determine from records and report gcPBM binding intensity (ln) for TATTTATATAGACACACACACATATATTTATATTTT [CACACA_site7240]
Reply: 10.4

---

System: PfAP2-HC AP2 domain (GST-tagged)
assay-protocol: gcPBM binding intensity (ln(normalized median fluorescence intensity)); higher = stronger DNA binding
Whole data set: some 25,000 sequences, median “ln(normalized median fluorescence intensity)” near 9.7, cut for the highest 2% near 11. Many of the other results were omitted from the sample, so the highest values are more common in it than they were.
The entries below come with measured gcPBM binding intensity (ln) values attached.
Enter a number only.

Consider the reported gcPBM binding intensity (ln) for these sequences:
[[record]]
ordered_residues = "CATACATACAGACACACACACATATATATATATATA [CACACA_site2920]"
measured_metric = "gcPBM binding intensity (ln)"
reported_value = 10.7

[[record]]
ordered_residues = "AAAAAGAAAATATATACACACCAAAAAAAAAAAAAA [CACACA_site5698]"
measured_metric = "gcPBM binding intensity (ln)"
reported_value = 9.75

[[record]]
ordered_residues = "AAGAATACACCACGCACACACACTTGAGAAAAAATA [CACACA_site3828]"
measured_metric = "gcPBM binding intensity (ln)"
reported_value = 11.2

[[record]]
ordered_residues = "TAAACAGACATATAAACACACATATAAACCGACATA [CACACA_site2478]"
measured_metric = "gcPBM binding intensity (ln)"
reported_value = 10.3

[[record]]
ordered_residues = "CCCACAGACGGACACACACACACATATATATATATA [CACACA_site4352]"
measured_metric = "gcPBM binding intensity (ln)"
reported_value = 11.1


Ask: Answer briefly: gcPBM binding intensity (ln) recorded on PfAP2-HC AP2 domain (GST-tagged) for TCTTCCATTTTTATTACACACATAAATATGAAATCG [CACACA_site3471]
Reply: 9.74

Ask: For PfAP2-HC AP2 domain (GST-tagged), give gcPBM binding intensity (ln) of the listed sequence: AAAAATTTGGCATACACACACACACCGACACAGACA [CACACA_site4489]
Reply: 10.5

Ask: Report gcPBM binding intensity (ln) from PfAP2-HC AP2 domain (GST-tagged) testing of ATTTGGCATGGACACACACACACACCGACAGACATA [CACACA_site4491]
Reply: 11.4

Ask: Answer briefly: gcPBM binding intensity (ln) recorded on PfAP2-HC AP2 domain (GST-tagged) for CCCACAGACGGACACACACACACACCGACACATATA [CACACA_site4356]
Reply: 11

---

# reported gcPBM binding intensity (ln); entries follow
System: PfAP2-HC AP2 domain (GST-tagged)
assay-protocol: gcPBM binding intensity (ln(normalized median fluorescence intensity)); higher = stronger DNA binding
Over roughly 25,000 sequences, “ln(normalized median fluorescence intensity)” has its median near 9.7; the highest 2% begin near 11. The full list was thinned out, with the highest values kept by preference.
Provide a numeric answer; units are not to be included.

Ask: Look up and report measured gcPBM binding intensity (ln) (PfAP2-HC AP2 domain (GST-tagged)) for the following sequence: AAAGAAAAAAAAAACACACACACACCCATTCAATAT [CACACA_site38]
Reply: 11.4

Ask: Identify measured gcPBM binding intensity (ln) obtained with PfAP2-HC AP2 domain (GST-tagged) for ATAAAAAAGAAACAAACACACATACATACAAACAAA [CACACA_site4256] .
Reply: 10.3

Ask: Enter recorded gcPBM binding intensity (ln) with PfAP2-HC AP2 domain (GST-tagged) for ATACTAAAGAAACACACACACATATATATATAGAAT [CACACA_site100] here.
Reply: 10.9

Ask: Write down measured gcPBM binding intensity (ln) (PfAP2-HC AP2 domain (GST-tagged)) for this sequence. TATACAGATGGACACACACACATAAATAAATATATA [CACACA_site4863]
Reply: 10.4

Ask: Name the value of gcPBM binding intensity (ln) reported for GGAATAACCAGACACACACACACATATATATATATA [CACACA_site3541] when tested on PfAP2-HC AP2 domain (GST-tagged).
Reply: 10.9

Ask: State gcPBM binding intensity (ln) (PfAP2-HC AP2 domain (GST-tagged)) of AAAGAAAAAAAAAACACACACACACGCATTCAATAT [CACACA_site6169] .
Reply: 10.7

Ask: // output gcPBM binding intensity (ln); input AAAAAAAACAGACACACACACATTCAATATAAAACA [CACACA_site41] ; system PfAP2-HC AP2 domain (GST-tagged)
Reply: 11.3

Ask: Give measured gcPBM binding intensity (ln) for ATAAAAAAAAGAAAAACACACACATATATATATATA [CACACA_site8243] (PfAP2-HC AP2 domain (GST-tagged)).
Reply: 10.4

Ask: With PfAP2-HC AP2 domain (GST-tagged) as the test system, provide measured gcPBM binding intensity (ln) for this sequence: AATTATATATTATAATGTACATATATATAACTATAC [XGTACX_site1865]
Reply: 9.67

Ask: Provide the reported gcPBM binding intensity (ln) (system: PfAP2-HC AP2 domain (GST-tagged)) for AATAAAAAGAAACACACACACACACCCATATATATA [CACACA_site3589]
Reply: 11.5

Ask: Please report the measured gcPBM binding intensity (ln) for CAGCTCTTAAGAATTACACACATATACACATATATA [CACACA_site7524] tested on PfAP2-HC AP2 domain (GST-tagged).
Reply: 9.95

Ask: Fill in: gcPBM binding intensity (ln) on PfAP2-HC AP2 domain (GST-tagged), entry ACTTACCCATTTATTACACACATAAAGGAAAATTTT [CACACA_site4873]
Reply: 9.88
